The reported numbers originate from patent US20240116985A1.

target: full-length beta-Catenin (Uniprot ID P35222) (Homo sapiens (Human)) (UniProt P35222); test: fluorescence polarization competition; full-length beta-catenin with 5FAM-TCF4(10-53) probe, peptide titrated
Sequence (P35222 whole entry): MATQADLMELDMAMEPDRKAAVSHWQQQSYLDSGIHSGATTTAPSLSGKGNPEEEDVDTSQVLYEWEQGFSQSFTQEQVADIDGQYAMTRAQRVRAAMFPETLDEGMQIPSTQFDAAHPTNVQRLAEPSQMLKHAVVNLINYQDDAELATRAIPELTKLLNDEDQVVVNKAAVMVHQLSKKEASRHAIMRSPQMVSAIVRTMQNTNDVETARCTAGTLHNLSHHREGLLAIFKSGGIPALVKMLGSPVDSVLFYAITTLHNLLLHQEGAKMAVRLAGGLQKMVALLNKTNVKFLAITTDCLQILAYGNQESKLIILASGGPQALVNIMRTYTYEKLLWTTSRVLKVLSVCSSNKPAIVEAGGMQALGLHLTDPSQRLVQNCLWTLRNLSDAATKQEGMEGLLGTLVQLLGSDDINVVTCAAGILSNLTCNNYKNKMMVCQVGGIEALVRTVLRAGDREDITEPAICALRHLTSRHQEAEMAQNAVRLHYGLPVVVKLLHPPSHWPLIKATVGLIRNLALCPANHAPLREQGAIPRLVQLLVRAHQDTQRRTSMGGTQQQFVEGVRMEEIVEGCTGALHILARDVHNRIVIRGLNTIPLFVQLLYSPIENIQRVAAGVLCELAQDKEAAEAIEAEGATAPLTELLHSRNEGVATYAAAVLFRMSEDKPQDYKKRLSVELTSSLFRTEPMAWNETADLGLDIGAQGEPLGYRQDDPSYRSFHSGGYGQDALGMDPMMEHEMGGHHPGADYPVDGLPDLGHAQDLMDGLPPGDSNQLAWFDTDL
Starred links: 1 amine or outer side, 2 acyl side, 3 side chain; linkers in the order of their positions; H or OH if unused. Positions of bridges follow the written chain, without caps; N, C: chain ends. Non-standard residues stand in square brackets, D forms with d. Primed or numbered codes have the meaning given here. PyrS2″ = (S)-3-amino-1-((pent-4-en-1-yloxy)carbonyl)pyrrolidine-3-carboxylic acid (stapling residue), C=CCCCOC(=O)N1CC[C@@](N[*:1])(C(=O)[*:2])C1; B5(16) = 2-amino-2-(pent-4-en-1-yl)hept-6-enoic acid = 2,2-bis(4-pentenyl)glycine (stitching residue), C=CCCCC(CCCC=C)(N[*:1])C(=O)[*:2]; B5(4) = 2,2-bis(4-pentenyl)glycine = 2-amino-2-(pent-4-en-1-yl)hept-6-enoic acid (stitching residue), C=CCCCC(CCCC=C)(N[*:1])C(=O)[*:2]; PyrS2 = (S)-3-amino-1-((pent-4-en-1-yloxy)carbonyl)pyrrolidine-3-carboxylic acid, C=CCCCOC(=O)N1CC[C@@](N[*:1])(C(=O)[*:2])C1; B5(3) = 2,2-bis(4-pentenyl)glycine (stitching residue), C=CCCCC(CCCC=C)(N[*:1])C(=O)[*:2]; Phe(2-Cl) = N[C@@H](Cc1ccccc1Cl)C(=O)O; Bta = N[C@@H](Cc1csc2ccccc12)C(=O)O; αAllylPro = C=CC[C@@]1(C(=O)O)CCCN1; tBuAla = CC(C)(C)C[C@H](N)C(=O)O; Cha = N[C@@H](CC1CCCCC1)C(=O)O
QUANTITY_NAME: IC50 (nM)

(A) Ac-[αAllylPro]D[tBuAla][B5(3)]DEAAFL[PyrS2″][Phe(2-Cl)][Bta]S-NH2 (staple 1-4, 4-11; also: staple stereoisomer: later eluting HPLC peak) [I-1067]
(B) Ac-[αAllylPro]D[tBuAla][B5(3)]DDAAFL[PyrS2″][Phe(2-Cl)][Bta]T-NH2 (staple 1-4, 4-11; not fully specified; printed as Ac-PL3-Asp-Npg-B5-Asp-Asp-Ala-Ala-Phe-Leu-PyrS2-2C1F-BztA-Thr-NH2) [I-1068]
Exercise: Param metric = IC50; output whichever of A , B has the minimum value. Give the chosen item's label as your response.
Solution: A
(A: 517 nM, B: 950 nM)

(a) Ac-[αAllylPro]D[Cha][B5(4)]DDAAFS[PyrS2][Phe(2-Cl)][Bta]S-NH2 (staple 1-4, 4-11) [I-1050]
(b) Ac-[αAllylPro]D[tBuAla][B5(3)]DEAAFL[PyrS2″][Phe(2-Cl)][Bta]T-NH2 (staple 1-4, 4-11; not fully specified; printed as Ac-PL3-Asp-Npg-B5-Asp-Glu-Ala-Ala-Phe-Leu-PyrS2-2C1F-BztA-Thr-NH2) [I-1070]
Exercise: Param metric = IC50; output whichever of a , b has the minimum value. Give the chosen item's label as your response.
Solution: a

(I) Ac-[αAllylPro]D[Cha][B5(16)]DDAAFN[PyrS2″][Phe(2-Cl)][Bta]S-NH2 (staple 1-4, 4-11) [I-1046]
(II) Ac-[αAllylPro]D[tBuAla][B5(3)]DEAAFL[PyrS2″][Phe(2-Cl)][Bta]S-NH2 (staple 1-4, 4-11; not fully specified; printed as Ac-PL3-Asp-Npg-B5-Asp-Glu-Ala-Ala-Phe-Leu-PyrS2-2C1F-BztA-Ser-NH2) [I-1066]
(III) Ac-[αAllylPro]D[tBuAla][B5(3)]DDAAFL[PyrS2][Phe(2-Cl)][Bta]S-NH2 (staple 1-4, 4-11; not fully specified; printed as Ac-PL3-Asp-Npg-B5-Asp-Asp-Ala-Ala-Phe-Leu-PyrS2-2C1F-BztA-Ser-NH2) [I-1064]
Exercise: Task for the reader: rank each entry by its IC50, from the minimum upward. Respond with an ordered listing of the labels, as requested.
Solution: I, III, II
